System: TDF
METHOD_NOTES: cell number relative to DMSO (% of DMSO); higher = more cells (less growth inhibition / toxicity)
APPLIED_CONDITIONS: concentration: 10 µM; 24 h
Threshold check on cell number: at or above 100 gives 1 (yes), strictly below gives 0 (no).

Observe how each entry below is paired with its result.
COc1ccc(C(=O)Nc2sc3c(c2C(N)=O)CCCC3)cc1OC : 1 (yes)
COc1cc(C)c(C=CC(C)=CC=CC(C)=CC(=O)O)c(C)c1C [Acitretin] : 1 (yes)
O=C(c1ccc(Nc2nccc(-c3cc4ccccc4s3)n2)cc1)N1CCC(N2CCCC2)CC1 : 0 (no)
O=[N+]([O-])c1cccc2c(Br)[nH]nc12 [3-Bromo-7-nitroindazole] : 1 (yes)
COc1ccc(-c2cc(=O)c3c(O)c(OC)c(OC)cc3o2)cc1O : 0 (no)
Cn1c(=O)c2c(ncn2Cc2ccc(C(C)(C)C)cc2)n(C)c1=O : 0 (no)

Please check the record CN(C)CCCn1cc(C2=C(c3c[nH]c4ccccc34)C(=O)NC2=O)c2ccccc21 [Bisindolylmaleimide I] and state if its cell number is at or above 100. 0 (no)

What do you get for CNCCC(Oc1ccccc1C)c1ccccc1 (configuration not stated) [Tomoxetine] ? 1 (yes)

Also need `NC(=O)N1C(=O)/C(=C(\O)c2cccs2)c2cc(Cl)ccc21` , thanks. 1 (yes)

###

Tested on: HCC1569
METHOD_NOTES: H1.0 immunofluorescence intensity relative to DMSO (% of DMSO); higher = stronger H1.0 induction, active = 140 or more
APPLIED_CONDITIONS: concentration: 10 µM; 24 h
Please state which outcome applies, choosing from Yes = active, No = inactive

C=CCc1ccc(O)c(-c2cc(CC=C)ccc2O)c1 : No
CC(C)c1cccc(C(C)C)c1N1C(=O)c2ccc(O)cc2C1=O : Yes
CC(C)OC(=O)CCCC=CCC1C(O)CC(O)C1CCC(O)CCc1ccccc1 (stereo not drawn) : No

Shifting focus to the compound that follows.
I would be grateful if you could indicate the recorded call for `O=c1oc(Cl)c(Cl)c2ccccc12` . No

###

Test system: HCC1569
METHOD_NOTES: H1.0 immunofluorescence intensity relative to DMSO (% of DMSO); higher = stronger H1.0 induction, active = 140 or more
APPLIED_CONDITIONS: concentration: 10 µM; 24 h
Response key: yes means H1.0 immunofluorescence intensity >= 100; no means H1.0 immunofluorescence intensity < 100.

Take a look at these entries with their results.
COC1C=CC=C(C)C(=O)NC2=CC(=O)C=C(C2=O)C(OC)C(C)CC(OC)C(OC)C(C)C=C(C)C1OC(N)=O (configuration not stated) : yes
O=C(O)C1CCCNC1 (racemic) : no
Cl.NC(N)=NC(=O)Cc1c(Cl)cccc1Cl [Guanfacine.HCl] : yes
CCCCS(=N)(=O)CCC(N)C(=O)O (configuration not stated) [Buthionine sulfoximine] : no

Check if H1.0 immunofluorescence intensity >= 100 (inclusive). Item: COc1ccc(C=C2c3ccccc3C(=O)c3ccccc32)cc1O [10-(3-hydroxy-4-methoxybenzylidene)-9(10H)-anthracenone] yes

Try this compound next: `Nc1nc(N)nc(-c2cc(Cl)ccc2Cl)n1` yes

###

Provide the reported H1.0 immunofluorescence intensity of each item.
Tested on: TDF
METHOD_NOTES: H1.0 immunofluorescence intensity relative to DMSO (% of DMSO); higher = stronger H1.0 induction, active = 120 or more
APPLIED_CONDITIONS: concentration: 10 µM; 24 h
Numbers only.

Known H1.0 immunofluorescence intensity results, listed for orientation:
NC(=O)OCC(COC(N)=O)c1ccccc1 [Felbamate] : 97
COC(=O)c1cnn(-c2ccc(F)cc2F)c1/C=N/NC(=S)NC(C)(C)C : 99
CNC1(C)C2CCC(C2)C1(C)C (stereo not drawn) : 83.3

For every item in the list below, what is its measured H1.0 immunofluorescence intensity?
1. C[C@@H](Nc1ncnc2[nH]c(-c3ccc(O)cc3)cc12)c1ccccc1
2. CCOC(=O)CN1C(=O)c2ccc3c4c(ccc(c24)C1=O)C(=O)N(CC(=O)OCC)C3=O
3. NC(C(=O)O)C(O)C(=O)O (racemic) [DL-threo-beta-hydroxyaspartic acid]
4. Cc1cccc(-c2[nH]ncc2-c2ccc3ncccc3n2)n1
5. COc1cc2ncnc(Nc3cccc(Cl)c3)c2cc1OC
6. CC(C)N(CCC(=O)c1ccc2ccccc2c1)Cc1ccccc1.Cl [JAK3 Inhibitor IV]

108
89.7
96.7
94.9
99.4
96.1

Kindly give each listed record's H1.0 immunofluorescence intensity.
1. Cc1nc2n(c(=O)c1CCN1CCC(c3noc4cc(F)ccc34)CC1)CCCC2
2. CCC(C)SSc1ncc[nH]1 (stereo not drawn) [2-(sec-butyldisulfanyl)-1H-imidazole]
3. O=C1C=C(CO)OCC1=O [5-hydroxy-2-(hydroxymethyl)-4H-pyran-4-one]
4. COc1c(O)cc2oc(-c3ccc(O)cc3)cc(=O)c2c1O [5,7-dihydroxy-2-(4-hydroxyphenyl)-6-methoxy-4H-chromen-4-one]
5. O=C1CC(c2ccc(O)c(O)c2)Oc2c1ccc(OC1OC(CO)C(O)C(O)C1O)c2O (stereo not drawn)
6. CN1CCC(=C2c3ccccc3C=Cc3ccccc32)CC1

1: 93.1; 2: 87.7; 3: 92.9; 4: 88; 5: 94.9; 6: 98.2

Could you tell me H1.0 immunofluorescence intensity for each of these compounds? They are listed below.
1. Cc1cnc(NC(=O)C2=C(O)c3ccccc3S(=O)(=O)N2C)s1
2. N[C@@H](Cc1c[nH]c2ccccc12)C(=O)O
3. CCCCCOC(=O)Nc1nc(=O)n(C2OC(C)C(O)C2O)cc1F (stereo not drawn)

[96.1, 96.6, 101]
